# ASSAY_INFO: small-molecule microarray binders of probe aDKK1, primary screen, biochemical, biotinylated probe, 635/667 nm fluorescence (AID 1099);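 further: score merges 667nm spot fluorescence with signal to noise across triplicate slides; reference of the scale not given here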
# CONDITIONS: higher = more signal
Catalogue of compounds with associated composite z-score
A bare number is all that is needed in reply.

Consider the reported composite z-score for these compounds:
[[record]]
compound = "COC(=O)[C@]1(CO)N=C(c2ccc(OCCCO)cc2)O[C@@H]1c1ccccc1N=[N+]=[N-]"
endpoint_name = "composite z-score"
observed_measurement = 0.341

[[record]]
compound = "COc1ccc(O[C@H]2C=C[C@@H](c3ccccc3)O[C@@H]2COC(=O)CCC(C)=NOCC[C@@H]2C=C[C@H](OC(C)=O)[C@@H](COC(C)=O)O2)cc1"
endpoint_name = "composite z-score"
observed_measurement = -0.0184

[[record]]
compound = "CC(C)=C1C(=O)C(c2ccccc2)=C2CN3C(=O)N(CCc4ccccc4)C(=O)[C@]3(Cc3ccc(F)cc3)[C@H]21"
endpoint_name = "composite z-score"
observed_measurement = 0.993

[[record]]
compound = "O=C1[C@H]2[C@H]3[C@H](O)[C@H](O)CC(=NOCc4ccccc4)[C@@H]3CC[C@H]2C(=O)N1Cc1ccccc1"
endpoint_name = "composite z-score"
observed_measurement = -0.206

[[record]]
compound = "COCCCNC(=O)[C@]1(Cc2ccccc2)N=C(c2ccc(OCCCO)cc2)O[C@@H]1c1ccccc1"
endpoint_name = "composite z-score"
observed_measurement = -0.0501

[[record]]
compound = "O=C(NN=C1C[C@@H](O)[C@@H](O)[C@@H]2[C@@H]3C(=O)N(c4ccc(F)cc4F)C(=O)[C@@H]3CC[C@@H]12)OCc1ccccc1"
endpoint_name = "composite z-score"
observed_measurement = -0.269


Recorded composite z-score of CC[C@@H](c1ccccc1)n1c(=O)n2n(c1=O)[C@H]1[C@H](O)[C@@H]3O[C@@H]3C(=NOCC(C)C)[C@H]1CC2 , please.
-0.187

Recorded composite z-score of C[C@@H]1C=CCC(=O)OC[C@H](C)C(=O)OC[C@H]2O[C@H]1C=C[C@H]2O , please.
-0.439

Recorded composite z-score of O=C(NN=C1C[C@@H](O)[C@@H](O)[C@@H]2[C@@H]3C(=O)N(c4cccc(Oc5ccccc5)c4)C(=O)[C@@H]3CC[C@H]12)OCc1ccccc1 , please.
0.0708

Recorded composite z-score of CCOC(=O)NN=C1C[C@@H](O)[C@@H](O)[C@@H]2[C@@H]3C(=O)N(C[C@@H]4CCCO4)C(=O)[C@@H]3CC[C@@H]12 , please.
-0.147

Recorded composite z-score of O=C1O[C@@H](c2ccccc2)[C@@H](c2ccccc2)N2[C@@H](c3ccccc3OCCO)[C@]3(C(=O)Nc4ccc(C#CCCO)cc43)[C@@H](C(=O)O)[C@H]12 , please.
-0.878

Recorded composite z-score of [N-]=[N+]=NCc1ccccc1[C@@H]1OC(c2ccc(OCCCO)cc2)=N[C@]1(Cc1ccccc1)C(=O)N1CCOCC1 , please.
1.2

Recorded composite z-score of CO[C@H]1O[C@H](CO)[C@@H](OC(=O)Nc2ccc3c(c2)OCO3)[C@H](OC(=O)Nc2ccccc2-c2ccccc2)[C@@H]1OC(=O)Nc1ccccc1-c1ccccc1 , please.
0.277

Recorded composite z-score of C[C@@H](c1ccccc1)N1C(=O)[C@H]2[C@H]3[C@H](O)[C@H](O)CC(=NNC(=O)OCc4ccccc4)[C@H]3CC[C@H]2C1=O , please.
0.24

Entry source: PubChem BioAssay
